assayNotes: PK analysis of 8M2D in transgenic mice (APPSWE), plasma
runConditions: mouse, in vivo, sc, 10 mg/kg, Day 1, 10 mg/kg, read-out: AUClast
Square brackets hold non-standard residues; d marks the D form. Peptide text beside a SMILES is read from it.

| compound | resultUnits | AUC(0-t) |
| --- | --- | --- |
| CC(=O)N[C@H](CC(=O)O)C(=O)N[C@@H](CCC(=O)O)C(=O)N[C@@H](CCC(=O)O)C(=O)N[C@@H](CCC(=O)O)C(=O)N[C@@H](CC(=O)O)C(=O)N[C@@H](CCC(=O)O)C(=O)N[C@@H](CCC(=O)O)C(=O)N[C@@H](CC(C)C)C(N)=O [8M2D, Ac-dEEEDEEL-NH2] (Ac-[dD]EEEDEEL-NH2) | ng·h/mL | 12800 |
